Header: IC50 / CD73 (Homo sapiens (Human)) / multiple publications

Tested system CD73 (Homo sapiens (Human)); IC50 recorded for "C[C@@H]1CCC[C@@H]1Nc1nc(Cl)nc2c1cnn2[C@@H]1O[C@H](COCP(=O)(O)O)[C@@H](O)[C@H]1O" was ≤ 500 nM

Tested system CD73 (Homo sapiens (Human)); IC50 recorded for C[C@@H](O)COc1nc(NC2CCCC2)c2cnn([C@@H]3O[C@H](CO[C@@](C)(CO)P(=O)(O)O)[C@@H](O)[C@H]3O)c2n1 (racemic) was ≤ 100 nM

Tested system CD73 (Homo sapiens (Human)); IC50 recorded for "O=C(NC1CCC2(CC1)CC2)O[C@@H]1CCN(c2cn[nH]c(=O)c2Cl)C1" was 1 to 10000 nM

Tested system CD73 (Homo sapiens (Human)); IC50 recorded for "O=P(O)(O)CS(=O)(=O)C[C@H]1O[C@@H](n2ncc3c(NC4CCCC4)cc(Cl)nc32)[C@H](O)[C@@H]1O" was ≤ 100 nM

Tested system CD73 (Homo sapiens (Human)); IC50 recorded for "O=P(O)(O)COC[C@H]1O[C@@H](n2ncc3c(N4CCCC4)nc(Cl)nc32)[C@H](O)[C@@H]1O" was ≤ 500 nM

Tested system CD73 (Homo sapiens (Human)); IC50 recorded for "CN(C[C@H]1O[C@@H](n2ncc3c(NC4CCCC4)nc(Cl)nc32)[C@H](O)[C@@H]1O)C(=O)CP(=O)(O)O" was ≤ 500 nM

Tested system CD73 (Homo sapiens (Human)); IC50 recorded for O=P(O)(O)C(COCc1nnn[nH]1)(COCC1CC1)OC[C@H]1O[C@@H](n2ncc3c(NC4CCCC4)nc(Cl)nc32)[C@H](O)[C@@H]1O (stereo in doubt) was ≤ 10 nM

Tested system CD73 (Homo sapiens (Human)); IC50 recorded for CS(=O)(=O)C(OC[C@H]1O[C@@H](n2ncc3c(NC4CCCC4)nc(Cl)nc32)[C@H](O)[C@@H]1O)P(=O)(O)O (some centres unmarked) was 100 to 1000 nM

Tested system CD73 (Homo sapiens (Human)); IC50 recorded for COCC(OC[C@H]1O[C@@H](c2ccc3c(NC4CCCC4)nc(Cl)nn23)[C@H](O)[C@@H]1O)(C(=O)O)P(=O)(O)O (some centres unmarked) was 0.5 to 1 nM

Tested system CD73 (Homo sapiens (Human)); IC50 recorded for "C[C@H]1CN(c2cn[nH]c(=O)c2Cl)C[C@@H]1NC(=O)OC1CCCCC1" was 1 to 10000 nM

Tested system CD73 (Homo sapiens (Human)); IC50 recorded for "O=P(O)(O)COC[C@H]1O[C@@H](n2ncc3c(N[C@H]4CCc5ccccc54)nc(Cl)nc32)[C@H](O)[C@@H]1O" was ≤ 500 nM

Tested system CD73 (Homo sapiens (Human)); IC50 recorded for "CN(C[C@H]1O[C@@H](n2cnc3c(NC4CCCC4)nc(Cl)nc32)[C@H](O)[C@@H]1O)C(=O)CP(=O)(OCOC(=O)OCC(C)(C)C)OCOC(=O)OCC(C)(C)C" was > 1000 nM

Tested system CD73 (Homo sapiens (Human)); IC50 recorded for CS(=O)(=O)N[C@H]1CC[C@H](NC(=O)O[C@@H]2CCN(c3cnn(CC(O)CO)c(=O)c3Cl)C2)CC1 (some centres unmarked) was 1 to 10000 nM

Tested system CD73 (Homo sapiens (Human)); IC50 recorded for "O=C(NC1CCCCCC1)N[C@@H]1CCN(c2cn[nH]c(=O)c2Cl)C1" was 1 to 10000 nM

====

Header: IC50 / CD73 (Homo sapiens (Human)) / multiple publications

Tested system CD73 (Homo sapiens (Human)); IC50 recorded for "O=P(O)(O)COC[C@H]1O[C@@H](n2ncc3c(NCc4cccc(Cl)c4)nc(N4CCCC4)nc32)[C@H](O)[C@@H]1O" was > 1000 nM

Tested system CD73 (Homo sapiens (Human)); IC50 recorded for "CC1(S(=O)(=O)N[C@H]2CC[C@H](NC(=O)O[C@@H]3CCN(c4cn[nH]c(=O)c4Cl)C3)CC2)CC1" was 1 to 10000 nM

Tested system CD73 (Homo sapiens (Human)); IC50 recorded for O=C(NC1CC2CC2C1)O[C@@H]1CCN(c2cnn(CCO)c(=O)c2Cl)C1 (some centres unmarked) was 1 to 10000 nM

Tested system CD73 (Homo sapiens (Human)); IC50 recorded for "O=C(N[C@@H]1CCCC(F)(F)C1)O[C@@H]1CCN(c2cn[nH]c(=O)c2Cl)C1" was 1 to 10000 nM

Tested system CD73 (Homo sapiens (Human)); IC50 recorded for "O=C(N[C@@H]1CCN(C(=O)c2ccccc2)C1)O[C@@H]1CCN(c2cn[nH]c(=O)c2Cl)C1" was 1 to 10000 nM

Tested system CD73 (Homo sapiens (Human)); IC50 recorded for CN(C[C@H]1O[C@@H](n2cnc3c(NC4CCCC4)nc(Cl)nc32)[C@H](O)[C@@H]1O)C(=O)CP1(=O)OCCC(c2cccc(Cl)c2)O1 (some centres unmarked) was > 1000 nM

Tested system CD73 (Homo sapiens (Human)); IC50 recorded for N#CC1CCC(NC(=O)O[C@@H]2CCN(c3cn[nH]c(=O)c3Cl)C2)CC1 (some centres unmarked) was 1 to 10000 nM

Tested system CD73 (Homo sapiens (Human)); IC50 recorded for "NC(=O)N1CCC(NC(=O)O[C@@H]2CCN(c3cn[nH]c(=O)c3Cl)C2)CC1" was 1 to 10000 nM

Tested system CD73 (Homo sapiens (Human)); IC50 recorded for "O=C(N[C@@H]1CCCC(F)(F)C1)O[C@@H]1CCN(c2cnn(CCO)c(=O)c2Cl)C1" was 1 to 10000 nM

Tested system CD73 (Homo sapiens (Human)); IC50 recorded for "O=P(O)(O)C(CO)(CO)OC[C@H]1O[C@H](c2cnn3c(NC4CCCC4)cc(Cl)nc23)[C@H](O)[C@@H]1O" was 1 to 100 nM

Tested system CD73 (Homo sapiens (Human)); IC50 recorded for "C[C@H](Nc1nc(Cl)nc2c1cnn2[C@@H]1O[C@H](COCP(=O)(O)O)[C@@H](O)[C@H]1O)c1cccc(Cl)c1" was ≤ 500 nM

Tested system CD73 (Homo sapiens (Human)); IC50 recorded for "O=C(Nc1ccc(C(F)(F)F)cc1)N[C@@H]1CCN(c2cn[nH]c(=O)c2Cl)C1" was 1 to 10000 nM

Tested system CD73 (Homo sapiens (Human)); IC50 recorded for "O=C(N[C@H]1CC[C@H](NC(=O)c2ccncc2)CC1)O[C@@H]1CCN(c2cn[nH]c(=O)c2Cl)C1" was 1 to 10000 nM

Tested system CD73 (Homo sapiens (Human)); IC50 recorded for "O=C(NC1CCC1)N[C@@H]1CCN(c2cn[nH]c(=O)c2Cl)C1" was 1 to 10000 nM

Tested system CD73 (Homo sapiens (Human)); IC50 recorded for "O=P(O)(O)COC[C@H]1O[C@@H](n2ncc3c(N[C@@H]4CCOC4)nc(Cl)nc32)[C@H](O)[C@@H]1O" was ≤ 500 nM

Tested system CD73 (Homo sapiens (Human)); IC50 recorded for "O=P(O)(O)CS(=O)(=O)C[C@H]1O[C@@H](n2nnc3c(N[C@@H]4CCc5ccccc54)cc(Cl)nc32)[C@H](O)[C@@H]1O" was ≤ 100 nM

Tested system CD73 (Homo sapiens (Human)); IC50 recorded for "CC(C)Nc1nc(Cl)nc2c1cnn2[C@@H]1O[C@H](CO[C@](CO)(Cc2nn[nH]n2)P(=O)(O)O)[C@@H](O)[C@H]1O" was ≤ 10 nM

Tested system CD73 (Homo sapiens (Human)); IC50 recorded for "O=P(O)(O)CS(=O)(=O)C[C@H]1O[C@@H](n2nnc3c(NCC4CCC4)nc(Cl)nc32)[C@H](O)[C@@H]1O" was ≤ 500 nM

Tested system CD73 (Homo sapiens (Human)); IC50 recorded for CC(CN1CCOCC1)(OC[C@H]1O[C@@H](n2ncc3c(NC4CCCC4)nc(Cl)nc32)[C@H](O)[C@@H]1O)P(=O)(O)O (some centres unmarked) was > 1000 nM

Tested system CD73 (Homo sapiens (Human)); IC50 recorded for "CC(C)(C)OC(=O)N[C@@H]1CCN(c2cn[nH]c(=O)c2Br)C1" was 1 to 10000 nM

Tested system CD73 (Homo sapiens (Human)); IC50 recorded for "N#Cc1c(N2C[C@H](OC(=O)NC3CCCC3)[C@@H](F)C2)cnn(CCO)c1=O" was 1 to 10000 nM

Tested system CD73 (Homo sapiens (Human)); IC50 recorded for "CN(Cc1ccccc1Cl)c1nc(Cl)nc2c1cnn2[C@@H]1O[C@H](COCP(=O)(O)O)[C@@H](O)[C@H]1O" was 500 to 1000 nM

Tested system CD73 (Homo sapiens (Human)); IC50 recorded for "O=C(N[C@H]1CCN(c2cn[nH]c(=O)c2Cl)C1)OC1CCCCC1" was 1 to 10000 nM

Tested system CD73 (Homo sapiens (Human)); IC50 recorded for "CS(=O)(=O)N1CCC(NC(=O)N[C@@H]2CCN(c3cn[nH]c(=O)c3Cl)C2)CC1" was 1 to 10000 nM

Tested system CD73 (Homo sapiens (Human)); IC50 recorded for O=P(O)(O)C(CO)(CCCc1nn[nH]n1)OC[C@H]1O[C@@H](n2ncc3c(NC4CCCC4)nc(Cl)nc32)[C@H](O)[C@@H]1O (some centres unmarked) was ≤ 10 nM

Tested system CD73 (Homo sapiens (Human)); IC50 recorded for "COC(=O)[C@H]1CC[C@H](NC(=O)O[C@@H]2CCN(c3cn[nH]c(=O)c3Cl)C2)CC1" was 1 to 10000 nM

Tested system CD73 (Homo sapiens (Human)); IC50 recorded for "O=P(O)(O)[C@](CO)(Cc1nn[nH]n1)OC[C@H]1O[C@@H](n2ncc3c(NC4CCCC4)nc(Cl)nc32)[C@H](O)[C@@H]1O" was ≤ 100 nM

Tested system CD73 (Homo sapiens (Human)); IC50 recorded for "NC(=O)Cn1ncc(N2CC[C@@H](OC(=O)NC3CCC(F)(F)CC3)C2)c(Cl)c1=O" was 1 to 10000 nM

Tested system CD73 (Homo sapiens (Human)); IC50 recorded for "O=C(Nc1ccc(F)cc1F)N[C@H]1CC[C@H](NC(=O)O[C@@H]2CCN(c3cn[nH]c(=O)c3Cl)C2)CC1" was 1 to 10000 nM
